Cited source for all entries: patent US20140335107A1

# system tested: T1, extracellular domain of human CD79b (huCD79becd) (human, UniProt P40259 29-159)
# T1 construct: expressed in CHO cells
# T1 sequence: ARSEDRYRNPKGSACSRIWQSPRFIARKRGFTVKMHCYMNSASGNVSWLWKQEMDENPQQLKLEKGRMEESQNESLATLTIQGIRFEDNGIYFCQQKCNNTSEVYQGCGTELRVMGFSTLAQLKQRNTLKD
# experiment summary: phage selection, Fab on phage
reported metric: binding result

# binder, meas value
records = [
    ("huMA79b graft variant with HVR-L2 of SEQ ID NO: 33 (Fab, name in Kabat numbering, V domains shown, Fab on phage) VH: EVQLVESGGGLVQPGGSLRLSCAASGYTFSSYWIEWVRQAPGKGLEWVGEILPGGGDTNYNEIFKGRFTISADTSKNTAYLQMNSLRAEDTAVYYCTRRVPVYFDYWGQGTLVTVSS VL: DIQMTQSPSSLSASVGDRVTITCKASQSVDYDGDSFLNWYQQKPGKAPKLLIYASRYLSRGVPSRFSGSGSGTDFTLTISSLQPEDFATYYCQQSNEDPLTFGQGTKVEIKR", "binds"),
    ("huMA79b graft variant with HVR-L2 of SEQ ID NO: 25 (Fab, name in Kabat numbering, V domains shown, Fab on phage) VH: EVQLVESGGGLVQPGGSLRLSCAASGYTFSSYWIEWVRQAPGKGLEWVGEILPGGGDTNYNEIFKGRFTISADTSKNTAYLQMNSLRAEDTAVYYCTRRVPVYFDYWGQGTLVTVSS VL: DIQMTQSPSSLSASVGDRVTITCKASQSVDYDGDSFLNWYQQKPGKAPKLLIYAARKLKRGVPSRFSGSGSGTDFTLTISSLQPEDFATYYCQQSNEDPLTFGQGTKVEIKR", "binds"),
    ("huMA79b graft variant with HVR-L2 of SEQ ID NO: 31 (Fab, name in Kabat numbering, V domains shown, Fab on phage; also called L2-38 mutation) VH: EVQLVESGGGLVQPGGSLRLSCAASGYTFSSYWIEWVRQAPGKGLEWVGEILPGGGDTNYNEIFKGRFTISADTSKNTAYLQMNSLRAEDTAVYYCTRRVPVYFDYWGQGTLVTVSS VL: DIQMTQSPSSLSASVGDRVTITCKASQSVDYDGDSFLNWYQQKPGKAPKLLIYAARKLGSGVPSRFSGSGSGTDFTLTISSLQPEDFATYYCQQSNEDPLTFGQGTKVEIKR", "binds"),
]
